Biological target: full-length recombinant H3 HA (A/Wisconsin/67/2005) on PER.C6 cells (influenza A virus (H3N2))
Assay: FACS, IgG 5 µg/ml, HA-expressing PER.C6 cells; untransfected MFI 3
value-kind: MFI (MFI)
Write the number in MFI without appending the unit.

Solved cases below.
CR8017 (antibody, V domains shown) VH: EVQLVETGGDLVQPGGSLRLSCSASEFSFSSYWMSWVRQAPGKGLEWVANMKQDGSEKYYVDSVKGRFTISRDNAKNSLYLQMNSLRGEDTAVYYCARGSCDDSWTGCHDAFDI VL: SSELTQDPAVSVALGQTVRITCQGDSLRSYYASWYQQKPGQAPVLVIYAKTNRPSGIPDRFSGSTSGNTASLTITGAQAEDEADYYCNSRDSSGNHVV	558
CR8015 (antibody, V domains shown) VH: QVQLQESGGDLVQPGGSLRLSCSASEFSFSSYWMSWVRQAPGKGLEWVANMKQDGSEKYYVDSVKGRFTISRDNAKNSLYLQMNSLRGEDTAVYYCARGSCDDSWTGCHDAFDI VL: VLTQPPSVSVAPGQTAKITCGGDNIGRKSVHWYQQKPGLAPVLVVNDNSDRPSGIPARFSGSNSGNTATLTISRVEAGDEADYYCHVWGSSRDHYV	600

Identify MFI associated with the binder CR8018 (antibody, V domains shown) VH: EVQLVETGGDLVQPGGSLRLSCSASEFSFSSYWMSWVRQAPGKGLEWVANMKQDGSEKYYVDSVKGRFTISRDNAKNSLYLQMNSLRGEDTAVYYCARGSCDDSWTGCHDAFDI VL: QSALTQPASVSGSPGQSITISCTGTSSDVGGYNYVSWYQQHPGKAPKLMIYEVSHRPSGVSNRFSGSKSGSTASLTISGLQSEDEADYYCSSYTGEGPLGV
348
